# key: entry, value: IC50
- assayed-system: Zcchc11 enzyme (Homo sapiens, UniProt Q5TAX3)
- Construct: made in house; host or cells: HEK293 cells (Zcchc11); E. coli Rosetta II (LIN28A)
- Sequence (Q5TAX3 212-1420): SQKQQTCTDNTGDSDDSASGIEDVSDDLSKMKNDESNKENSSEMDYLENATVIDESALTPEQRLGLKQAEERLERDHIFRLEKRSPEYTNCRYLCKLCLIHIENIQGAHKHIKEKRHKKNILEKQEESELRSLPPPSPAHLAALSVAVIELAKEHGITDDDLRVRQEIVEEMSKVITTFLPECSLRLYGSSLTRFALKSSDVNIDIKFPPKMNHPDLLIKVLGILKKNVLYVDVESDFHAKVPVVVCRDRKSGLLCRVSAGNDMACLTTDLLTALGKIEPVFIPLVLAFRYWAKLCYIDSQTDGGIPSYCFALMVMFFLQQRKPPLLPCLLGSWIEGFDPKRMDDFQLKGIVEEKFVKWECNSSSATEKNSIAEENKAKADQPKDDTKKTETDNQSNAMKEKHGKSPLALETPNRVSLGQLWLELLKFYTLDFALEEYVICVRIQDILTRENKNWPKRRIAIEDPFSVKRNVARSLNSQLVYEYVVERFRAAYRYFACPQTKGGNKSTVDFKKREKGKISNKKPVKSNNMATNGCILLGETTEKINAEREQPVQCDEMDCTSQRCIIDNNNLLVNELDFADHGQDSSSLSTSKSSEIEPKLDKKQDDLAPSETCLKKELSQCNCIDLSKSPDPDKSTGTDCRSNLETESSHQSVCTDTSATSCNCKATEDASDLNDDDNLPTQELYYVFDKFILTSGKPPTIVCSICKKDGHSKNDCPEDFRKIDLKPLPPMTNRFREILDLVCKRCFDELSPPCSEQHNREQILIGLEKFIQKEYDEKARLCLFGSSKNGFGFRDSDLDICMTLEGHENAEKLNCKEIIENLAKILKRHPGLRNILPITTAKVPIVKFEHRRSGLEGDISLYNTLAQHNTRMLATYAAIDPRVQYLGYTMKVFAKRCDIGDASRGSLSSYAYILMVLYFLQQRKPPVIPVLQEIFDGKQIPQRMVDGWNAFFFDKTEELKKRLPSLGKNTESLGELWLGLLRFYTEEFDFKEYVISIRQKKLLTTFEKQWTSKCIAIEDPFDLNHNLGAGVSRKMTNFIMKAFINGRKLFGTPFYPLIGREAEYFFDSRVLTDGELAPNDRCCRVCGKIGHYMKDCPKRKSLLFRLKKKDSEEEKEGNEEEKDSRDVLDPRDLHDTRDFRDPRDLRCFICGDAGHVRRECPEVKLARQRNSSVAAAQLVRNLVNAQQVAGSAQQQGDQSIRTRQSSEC
- assay-comment: TUTase assay (Zcchc11 assay, Lin28a-dependent polyuridylation of pre-let-7)
- Assay type: biochemical
- conditions-used: Lin28a-dependent Zcchc11 (Z11) TUTase activity; read-out: Potency Lin28a-dep Z11 IC50

// below: answered compounds
- compound: "CC(=O)Nc1ccc(-n2cc(C(=O)O)c(=O)c3cc(F)c(N4CCC[C@@H]4COc4ccccn4)cc32)cc1 [Compound 159]"
  assayed-system: "Zcchc11 enzyme (Homo sapiens, UniProt Q5TAX3)"
  IC50: "≤ 1 µM"
- compound: "CN(C)C1CN(c2ccc(-n3cc(C(=O)O)c(=O)c4cc(F)c(N5[C@@H](COc6nc7c(ccn7C)cc6Cl)C[C@H]6C[C@H]65)cc43)cn2)C1 [Compound 337]"
  assayed-system: "Zcchc11 enzyme (Homo sapiens, UniProt Q5TAX3)"
  IC50: "≤ 1 µM"
- compound: "CN(C)C1CN(c2ccc(-n3cc(C(=O)O)c(=O)c4cc(Cl)c(N5CCC[C@@H]5COc5nccn6ccnc56)cc43)cn2)C1 [Compound 172]"
  assayed-system: "Zcchc11 enzyme (Homo sapiens, UniProt Q5TAX3)"
  IC50: "≤ 1 µM"
- compound: "CN(C)C1CN(c2ccc(-n3cc(C(=O)O)c(=O)c4cc(Cl)c(N5C(=O)CCCC5COc5ccccn5)cc43)cn2)C1 (centres unmarked) [Compound 324]"
  assayed-system: "Zcchc11 enzyme (Homo sapiens, UniProt Q5TAX3)"
  IC50: "10 to 50 µM"
- compound: "COc1ccc(COc2ccc(-n3cc(C(=O)O)c(=O)c4cc(F)c(N5CCC[C@@H]5COc5cccnn5)cc43)c(F)c2)cc1 [Compound 138]"
  assayed-system: "Zcchc11 enzyme (Homo sapiens, UniProt Q5TAX3)"
  IC50: "≤ 1 µM"
- compound: "Cc1cccc(-n2cc(C(=O)O)c(=O)c3cc(F)c(N4CCC[C@@H]4COc4ccccn4)cc32)c1 [Compound 155]"
  assayed-system: "Zcchc11 enzyme (Homo sapiens, UniProt Q5TAX3)"
  IC50: "≤ 1 µM"
- compound: "O=C(O)c1cn(-c2ccc(O)cc2)c2cc(N3CCC[C@@H]3COc3cc4cc[nH]c4cn3)c(F)cc2c1=O [Compound 118]"
  assayed-system: "Zcchc11 enzyme (Homo sapiens, UniProt Q5TAX3)"
  IC50: "≤ 1 µM"
- compound: "O=C(O)c1cn(-c2ccc(O)cc2F)c2cc(N3CCC[C@@H]3COc3ccccn3)c(Cl)cc2c1=O [Compound 95]"
  assayed-system: "Zcchc11 enzyme (Homo sapiens, UniProt Q5TAX3)"
  IC50: "≤ 1 µM"

[ask] Would you kindly share the measured IC50 for CN(C)C1CN(c2ccc(-n3cc(C(=O)O)c(=O)c4cc(Cl)c(N5CC(c6cn(C)cn6)C[C@@H]5COc5ncccc5Cl)cc43)cn2)C1 (some centres unmarked) [Compound 276] ?
[reply] ≤ 1 µM

[ask] # repeat for N#Cc1cc2c(=O)c(C(=O)O)cn(-c3cnccn3)c2nc1N1CCC[C@@H]1COc1ccccc1 [Compound 283]
[reply] 10 to 50 µM

[ask] # repeat for O=C(O)c1cn2c3cc(c(Cl)cc3c1=O)N1CCC[C@@H]1COc1nc(ccc1Cl)OCCCNc1ccc-2cn1 [Compound 300]
[reply] ≤ 1 µM

[ask] # repeat for Cc1cccnc1OC[C@H]1CCCN1c1cc2c(cc1Cl)c(=O)c(C(=O)O)cn2-c1ccccc1 [Compound 103]
[reply] ≤ 1 µM

[ask] # repeat for Nc1ccc(-n2cc(C(=O)O)c(=O)c3cc(Cl)c(N4CC(c5ccccn5)C[C@@H]4COc4ncccc4Cl)cc32)cn1 (mixture of isomers) [Compound 180]
[reply] ≤ 1 µM

[ask] # repeat for O=C(O)c1cn(C2CC2)c2cc(N3CCC[C@@H]3COc3ccccc3)c(F)cc2c1=O [Compound 96]
[reply] > 50 µM

* * *

- assayed-system: Zcchc11 enzyme (Homo sapiens, UniProt Q5TAX3)
- Construct: made in house; host or cells: HEK293 cells (Zcchc11); E. coli Rosetta II (LIN28A)
- assay-comment: TUTase assay (Zcchc11 assay, Lin28a-dependent polyuridylation of pre-let-7)
- Assay type: biochemical
- conditions-used: Lin28a-dependent Zcchc11 (Z11) TUTase activity; read-out: Potency Lin28a-dep Z11 IC50
pIC50: −log10 of the molar value.
experimental-endpoint: pIC50

// below: answered compounds
- compound: "O=C(O)c1cn(-c2ccccc2)c2cc(N3CCC[C@@H]3COc3ncccc3F)c(F)cc2c1=O"
  pIC50: "≥ 6.00"
- compound: "O=C(O)c1cn(-c2cnccn2)c2cc(N3CCCCC3COc3ccccn3)c(Cl)cc2c1=O (stereo not shown)"
  pIC50: "5.00 to 6.00"
- compound: "O=C(O)c1cn(C2CC2)c2c(Cl)c(N3CCC[C@@H]3COc3ccccn3)c(F)cc2c1=O"
  pIC50: "4.30 to 5.00"

[ask] Would you kindly share the measured pIC50 for O=C(O)c1cn(-c2ccc(O)cc2)c2c(F)c(N3CCC[C@@H]3COc3ccccn3)c(F)cc2c1=O ?
[reply] ≥ 6.00

[ask] # repeat for CN(C)C1CN(c2ccc(-n3cc(C(=O)O)c(=O)c4cc(C#N)c(N5C(COc6ncccc6F)CCC5(C)C)cc43)cn2)C1 (stereo not shown)
[reply] 5.00 to 6.00

[ask] # repeat for O=C(O)c1cn(-c2cnn(C3CNC3)c2)c2cc(N3CCC[C@@H]3COc3ncccc3F)c(Cl)cc2c1=O
[reply] ≥ 6.00

[ask] # repeat for Cc1cccnc1OC[C@H]1CCCN1c1cc2c(cc1Cl)c(=O)c(C(=O)O)cn2-c1ccc(O)cc1
[reply] ≥ 6.00

* * *

- assayed-system: Zcchc11 enzyme (Homo sapiens)
- Construct: made in house; host or cells: HEK293 cells (Zcchc11); E. coli Rosetta II (LIN28A)
- assay-comment: TUTase assay (Zcchc11 assay, Lin28a-dependent polyuridylation of pre-let-7)
- Format: biochemical
- conditions-used: Lin28a-dependent Zcchc11 (Z11) TUTase activity; read-out: Potency Lin28a-dep Z11 IC50
experimental-endpoint: IC50

- molecule: "O=C(O)c1cn(-c2ccc(O)cc2)c2cc(N3CCC[C@@H]3CNc3ncccc3Cl)c(F)cc2c1=O [Compound 112]"
  experimental-endpoint: "IC50"
  experimental-result: "≤ 1000 nM"
- molecule: "O=C(O)c1cn(-c2ccc(O)cc2)c2cc(N3CCC[C@@H]3Cn3ccc4cccnc43)c(F)cc2c1=O [Compound 113]"
  experimental-endpoint: "IC50"
  experimental-result: "≤ 1000 nM"
- molecule: "O=C(O)c1cn(C2CC2)c2cc(N3CCC[C@@H]3COc3ccccn3)c(F)cc2c1=O [Compound 87]"
  experimental-endpoint: "IC50"
  experimental-result: "1000 to 10000 nM"

[ask] Would you kindly share the measured IC50 for COc1ccc(F)c(OC[C@H]2C[C@H]3C[C@H]3N2c2cc3c(cc2F)c(=O)c(C(=O)O)cn3-c2ccnc(N)c2)n1 (racemic) [Compound 235] ?
[reply] ≤ 1000 nM

[ask] # repeat for CN(C)C1CN(c2ccc(-n3cc(C(=O)O)c(=O)c4cc(C#N)c(N5C6CCC5(COc5ncccc5F)CC6)cc43)cn2)C1 [Compound 181]
[reply] ≤ 1000 nM

[ask] # repeat for CN(C)C1CN(c2ccc(-n3cc(C(=O)O)c(=O)c4cc(Cl)c(N5CCC[C@@H]5COc5nc6ccn(C)c6cc5Cl)cc43)cn2)C1 [Compound 256]
[reply] ≤ 1000 nM
